# SYSTEM_TESTED: Alpha-1A adrenergic receptor (Oryctolagus cuniculus)
# ASSAY_DETAILS: Efficacy relative to phenylephrine (PE) to constrict tissue containing the alpha-1A adrenergic receptor in rabbit urethra
# Format: functional, tissue-based
MEASURED_ATTRIBUTE: Efficacy

COMPOUND	ENDPOINT_VALUE
CCS(=O)(=O)Nc1cccc(CC2CCCN2)c1 (configuration not stated)	17%
CS(=O)(=O)Nc1cccc2c1CCCC2C1=NCCN1 (configuration not stated)	87%
Cn1cnc(C2CCCc3c(NS(C)(=O)=O)cccc32)c1 (configuration not stated)	40%
CCS(=O)(=O)Nc1cccc(Cc2c[nH]cn2)c1C	69%
CCS(=O)(=O)Nc1cccc(Cc2c[nH]cn2)c1	80%
COc1ccc(OC)c(C(O)CN)c1 (configuration not stated) [DESGLYMIDODRINE]	133%
COc1ccc(NS(C)(=O)=O)c2c1C(c1c[nH]cn1)CCC2 (configuration not stated)	57%
CS(=O)(=O)Nc1ccc(Cl)c2c1CCCC2c1c[nH]cn1 (configuration not stated)	41%
CS(=O)(=O)Nc1cccc2c1CCCCC2c1c[nH]cn1 (configuration not stated)	17%
CS(=O)(=O)Nc1cccc2c1CCC[C@H]2c1c[nH]cn1	84%
O=C(Nc1cccc2c1CCCC2c1c[nH]cn1)C(F)(F)F (configuration not stated)	118%
CC(N)C(O)c1ccccc1 (configuration not stated) [PHENYLPROPANOLAMINE]	68%

###

# SYSTEM_TESTED: Alpha adrenergic receptor 1A and 1D (Rattus norvegicus) (UniProt P23944+P43140)
# ASSAY_DETAILS: Selectivity is ratio of pKi (binding affinity) of Alpha-1D to that of alpha1A
# Assay type: protein assay
# Selectivity listing for each entry below
MEASURED_ATTRIBUTE: Selectivity

COMPOUND	SYSTEM_TESTED	REL	ENDPOINT_VALUE
O=S(=O)(Nc1cccc2c1CCCC2c1c[nH]cn1)C1CC1 (stereo not drawn)	Alpha adrenergic receptor 1A and 1D (Rattus norvegicus) (UniProt P23944+P43140)	=	5
CC(c1cccc(NS(C)(=O)=O)c1)c1c[nH]cn1 (stereo not drawn)	Alpha adrenergic receptor 1A and 1D (Rattus norvegicus) (UniProt P23944+P43140)	=	1
COc1ccc(OC)c(C(O)CN)c1 (stereo not drawn)	Alpha adrenergic receptor 1A and 1D (Rattus norvegicus) (UniProt P23944+P43140)	=	0.8
CCS(=O)(=O)Nc1cccc2c1CCCC2c1c[nH]c(C)n1 (stereo not drawn)	Alpha adrenergic receptor 1A and 1D (Rattus norvegicus) (UniProt P23944+P43140)	>	10
CN(C)S(=O)(=O)Nc1cccc2c1CCCC2c1c[nH]cn1 (stereo not drawn)	Alpha adrenergic receptor 1A and 1D (Rattus norvegicus) (UniProt P23944+P43140)	=	3
CS(=O)(=O)Nc1ccc(Cl)c2c1CCCC2c1c[nH]cn1 (stereo not drawn)	Alpha adrenergic receptor 1A and 1D (Rattus norvegicus) (UniProt P23944+P43140)	=	6
CCS(=O)(=O)Nc1cccc(NC2=NCCN2)c1	Alpha adrenergic receptor 1A and 1D (Rattus norvegicus) (UniProt P23944+P43140)	<	0.04
CCCS(=O)(=O)Nc1cccc2c1CCCC2c1c[nH]cn1 (stereo not drawn)	Alpha adrenergic receptor 1A and 1D (Rattus norvegicus) (UniProt P23944+P43140)	>	6
CS(=O)(=O)Nc1cccc2c1CCCCC2c1c[nH]cn1 (stereo not drawn)	Alpha adrenergic receptor 1A and 1D (Rattus norvegicus) (UniProt P23944+P43140)	=	2
CCS(=O)(=O)Nc1ccc2c(c1)C(c1c[nH]cn1)CCC2 (stereo not drawn)	Alpha adrenergic receptor 1A and 1D (Rattus norvegicus) (UniProt P23944+P43140)	=	0.2
COc1ccc(NS(C)(=O)=O)c2c1C(c1c[nH]cn1)CCC2 (stereo not drawn)	Alpha adrenergic receptor 1A and 1D (Rattus norvegicus) (UniProt P23944+P43140)	>	6
CCS(=O)(=O)Nc1cc(C2CCCCC2)cc2c1CCCC2c1c[nH]cn1 (stereo not drawn)	Alpha adrenergic receptor 1A and 1D (Rattus norvegicus) (UniProt P23944+P43140)	=	2
CCS(=O)(=O)Nc1cccc2c1CCCC2(O)c1c[nH]cn1 (stereo not drawn)	Alpha adrenergic receptor 1A and 1D (Rattus norvegicus) (UniProt P23944+P43140)	=	1
CCS(=O)(=O)Nc1cccc2c1CCCC2CNC (stereo not drawn)	Alpha adrenergic receptor 1A and 1D (Rattus norvegicus) (UniProt P23944+P43140)	>	7
CC(C)S(=O)(=O)Nc1cccc2c1CCCC2c1c[nH]cn1 (stereo not drawn)	Alpha adrenergic receptor 1A and 1D (Rattus norvegicus) (UniProt P23944+P43140)	=	2
CCS(=O)(=O)Nc1cccc2c1CCCC2CN (stereo not drawn)	Alpha adrenergic receptor 1A and 1D (Rattus norvegicus) (UniProt P23944+P43140)	>	10
CCS(=O)(=O)Nc1cccc(C2CCNC2)c1 (stereo not drawn)	Alpha adrenergic receptor 1A and 1D (Rattus norvegicus) (UniProt P23944+P43140)	=	2
CCS(=O)(=O)Nc1cccc2c1SCCC2c1c[nH]cn1 (stereo not drawn)	Alpha adrenergic receptor 1A and 1D (Rattus norvegicus) (UniProt P23944+P43140)	=	10
O=C(Nc1cccc2c1CCCC2c1c[nH]cn1)C(F)(F)F (stereo not drawn)	Alpha adrenergic receptor 1A and 1D (Rattus norvegicus) (UniProt P23944+P43140)	=	20
CCS(=O)(=O)Nc1cccc2c1CCCC2c1c[nH]cn1 (single isomer, unassigned; (+))	Alpha adrenergic receptor 1A and 1D (Rattus norvegicus) (UniProt P23944+P43140)	=	20
Cc1ccc(NS(C)(=O)=O)c2c1C(c1c[nH]cn1)CCC2 (stereo not drawn)	Alpha adrenergic receptor 1A and 1D (Rattus norvegicus) (UniProt P23944+P43140)	=	7
O=S(=O)(Nc1cccc2c1CCCC2c1c[nH]cn1)c1ccc2ccccc2c1 (stereo not drawn)	Alpha adrenergic receptor 1A and 1D (Rattus norvegicus) (UniProt P23944+P43140)	=	0.4
CCS(=O)(=O)Nc1cc(F)cc2c1CCCC2c1c[nH]cn1 (stereo not drawn)	Alpha adrenergic receptor 1A and 1D (Rattus norvegicus) (UniProt P23944+P43140)	=	44
